B1: Pistol ribozyme (parent)
chain: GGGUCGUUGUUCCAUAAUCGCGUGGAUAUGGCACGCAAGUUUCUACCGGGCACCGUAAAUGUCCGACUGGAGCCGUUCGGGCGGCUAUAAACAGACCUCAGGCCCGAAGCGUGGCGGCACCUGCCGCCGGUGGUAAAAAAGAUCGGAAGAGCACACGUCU

Variants of: B1
Test: aptazyme ON/OFF ratio, guanine; higher = stronger switching; co-transcriptional cleavage with and without guanine
OBSERVATION_TYPE: aptazyme ON/OFF ratio
Lab note: record the figure alone, no unit after it.

Please give the measured aptazyme ON/OFF ratio for this variant: U8C G9A U10C C12U C13U
1.21

Consider the variant U7A U8G G9U U10C C13U and give its measured aptazyme ON/OFF ratio.
1.57

Query: aptazyme ON/OFF ratio; subject: U7A U8G U10C U11A C13A
1.45

Fill blank: measured aptazyme ON/OFF ratio of the variant G9A U10A U11G C13A is ____.
1.34

Which aptazyme ON/OFF ratio reading was recorded for the variant U7C U8G U10C U11A C12A C13U ?
1.33

What does the record list as aptazyme ON/OFF ratio for U7C G9U U11G C12A ?
1.09

# input variant: U7G U8G G9C U10G U11G C12U C13U ; wanted: its aptazyme ON/OFF ratio
1.17

Could you share which aptazyme ON/OFF ratio value was measured for U7A U10G C12U ?
1.29

So what does the record say about aptazyme ON/OFF ratio for U8C G9A U11G C12A C13U ?
1.27

aptazyme ON/OFF ratio for U8C G9U U10A U11A C12A C13G ?
1.1

// query aptazyme ON/OFF ratio value for entry U8G G9U U10A
1.2

Recorded values, source the RNAGym collection of RNA variant scans (doi:10.1021/acssynbio.7b00057).
